Test system: 485368-065-R3-J5-PDC spheroids with HUVEC/MSC, viability;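 further: spheroids exposed to agents for seven days before readout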
Test: Anticancer human tumor 485368-065-R3-J5-PDC patient-derived pancreatic carcinoma cell line growth inhibition [RAS]
Details: second compound 0.000949 µM; first compound 0.000949 µM; stronger effect = lower value
result type: viability, T/C (%)

1) CC1(C)CCC(Nc2ncc(C(F)(F)F)c(-c3c[nH]c4c(P(C)(C)=O)c(C#N)ccc34)n2)CN1 (centres undefined) + CCn1c(-c2cc(N3CCN(C)CC3)cnc2C(C)OC)c2c3cc(ccc31)-c1csc(n1)CC(NC(=O)C1CC1C)C(=O)N1CCCC(N1)C(=O)OCC(C)(C)C2 : 48.5
2) CCc1c2c(nc3ccc(O)cc13)-c1cc3c(c(=O)n1C2)COC(=O)[C@]3(O)CC + CCn1c(-c2cccnc2C(C)OC)c2c3cc(ccc31)N1CCOC(CC(NC(=O)C(C(C)C)N(C)C(=O)C3(F)CCN(C(=O)C#CC(C)(C)N(C)C)CC3)C(=O)N3CCCC(N3)C(=O)OCC(C)(C)C2)C1 : 84.3
3) CCc1c2c(nc3ccc(O)cc13)-c1cc3c(c(=O)n1C2)COC(=O)[C@]3(O)CC + CCn1c(-c2cc(N3CCN(C)CC3)cnc2C(C)OC)c2c3cc(ccc31)-c1csc(n1)CC(NC(=O)C1CC1C)C(=O)N1CCCC(N1)C(=O)OCC(C)(C)C2 : 29.2
4) CC1(C)CCC(Nc2ncc(C(F)(F)F)c(-c3c[nH]c4c(P(C)(C)=O)c(C#N)ccc34)n2)CN1 (centres undefined) + CCn1c(-c2cccnc2C(C)OC)c2c3cc(ccc31)N1CCOC(CC(NC(=O)C(C(C)C)N(C)C(=O)C3(F)CCN(C(=O)C#CC(C)(C)N(C)C)CC3)C(=O)N3CCCC(N3)C(=O)OCC(C)(C)C2)C1 : 116
